# test: Plasma protein binding, monkey
# Format: in vitro ADME
measuredMetric: fraction unbound

structureSmilesString	resultValue
CC[C@@H]1CN(C(=O)NCC(F)(F)F)C[C@@H]1c1cnc2cnc3[nH]ccc3n12	0.61

====

# test: in vivo
# measurementParameters: both, beagle, dog, po, 3 mg/kg/day

structureSmilesString	AUC at 28 days
CC[C@@H]1CN(C(=O)NCC(F)(F)F)C[C@@H]1c1cnc2cnc3[nH]ccc3n12	2140 ng·h/mL

====

# test: Pharmacokinetics across species
# Format: in vivo
# measurementParameters: rat, monkey, dog, plasma; oral; read-out: plasma elimination half-life after oral dosing
measuredMetric: half-life

structureSmilesString	resultValue
CC[C@@H]1CN(C(=O)NCC(F)(F)F)C[C@@H]1c1cnc2cnc3[nH]ccc3n12	3 to 5 h

====

# test: Metabolic stability in liver microsomes, monkey
# Type: in vitro ADME
# measurementParameters: read-out: intrinsic clearance in liver microsomes (scaled)

compound	CLint scaled at 0.5 μM
CC[C@@H]1CN(C(=O)NCC(F)(F)F)C[C@@H]1c1cnc2cnc3[nH]ccc3n12 [Compound 1]	< 26.7 mL/min/kg

====

Target sequence: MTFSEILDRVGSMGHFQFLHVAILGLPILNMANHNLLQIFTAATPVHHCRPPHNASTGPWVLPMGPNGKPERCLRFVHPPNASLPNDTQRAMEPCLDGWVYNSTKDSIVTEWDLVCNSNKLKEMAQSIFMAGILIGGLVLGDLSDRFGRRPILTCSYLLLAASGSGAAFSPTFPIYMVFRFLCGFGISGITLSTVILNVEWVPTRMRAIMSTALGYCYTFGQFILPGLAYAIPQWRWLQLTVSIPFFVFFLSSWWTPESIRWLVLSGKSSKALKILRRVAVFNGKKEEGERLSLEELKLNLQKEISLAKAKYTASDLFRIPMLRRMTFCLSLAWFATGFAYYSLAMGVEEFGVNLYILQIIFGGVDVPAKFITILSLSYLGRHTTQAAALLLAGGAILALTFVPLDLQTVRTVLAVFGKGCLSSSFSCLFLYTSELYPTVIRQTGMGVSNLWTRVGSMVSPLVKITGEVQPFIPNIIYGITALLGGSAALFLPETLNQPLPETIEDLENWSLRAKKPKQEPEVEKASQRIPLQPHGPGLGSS
measuredMetric: IC50

structureSmilesString	measuredMetric	resultValue
CC[C@@H]1CN(C(=O)NCC(F)(F)F)C[C@@H]1c1cnc2cnc3[nH]ccc3n12	IC50	43 µM

====

# test: Pharmacokinetics in monkey
# Format: in vivo
# measurementParameters: plasma, IV 0.1 mg/kg single dose, mean (SD), read-out: CLp (converted)
measuredMetric: clearance (mL/min/kg)

structureSmilesString	measuredMetric	unit	resultValue
CC[C@@H]1CN(C(=O)NCC(F)(F)F)C[C@@H]1c1cnc2cnc3[nH]ccc3n12	clearance	mL/min/kg	23.3

====

# test: Human PK, single ascending dose Study M13-401
# Assay type: in vivo
# measurementParameters: human, in vivo, oral, 3 mg

structureSmilesString	AUC(0-t), ng·h/mL
CC[C@@H]1CN(C(=O)NCC(F)(F)F)C[C@@H]1c1cnc2cnc3[nH]ccc3n12	102

====

# test: in vivo
# measurementParameters: both, beagle, dog, po, 5 mg/kg/day, Cmax
measuredMetric: Cmax

molecule	resultValue
CC[C@@H]1CN(C(=O)NCC(F)(F)F)C[C@@H]1c1cnc2cnc3[nH]ccc3n12 [Compound 1]	1240 ng/mL

====

# studyTarget: MATE1 (Homo sapiens, UniProt Q96FL8)
# Sequence (Q96FL8 whole entry): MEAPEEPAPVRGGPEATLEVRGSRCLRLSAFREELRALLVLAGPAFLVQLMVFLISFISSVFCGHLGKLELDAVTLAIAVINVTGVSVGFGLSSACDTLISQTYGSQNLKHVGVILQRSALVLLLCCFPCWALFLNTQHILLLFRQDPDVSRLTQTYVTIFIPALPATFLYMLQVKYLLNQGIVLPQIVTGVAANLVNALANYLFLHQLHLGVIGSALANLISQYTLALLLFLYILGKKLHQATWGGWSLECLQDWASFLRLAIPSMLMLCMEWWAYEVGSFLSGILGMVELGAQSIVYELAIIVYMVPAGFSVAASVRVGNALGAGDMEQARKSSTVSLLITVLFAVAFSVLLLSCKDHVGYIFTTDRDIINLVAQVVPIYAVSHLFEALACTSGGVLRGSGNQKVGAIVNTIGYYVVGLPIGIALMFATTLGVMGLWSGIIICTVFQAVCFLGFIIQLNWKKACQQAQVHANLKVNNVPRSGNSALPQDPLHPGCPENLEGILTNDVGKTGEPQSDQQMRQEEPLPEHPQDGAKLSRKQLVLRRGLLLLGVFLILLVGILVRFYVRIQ

compound	IC50 (µM)
CC[C@@H]1CN(C(=O)NCC(F)(F)F)C[C@@H]1c1cnc2cnc3[nH]ccc3n12 [Compound 1]	11

====

# test: in vivo
# measurementParameters: dog, iv, 1 mg/kg
measuredMetric: half-life (h)

compound	measuredMetric	resultValue
CC[C@@H]1CN(C(=O)NCC(F)(F)F)C[C@@H]1c1cnc2cnc3[nH]ccc3n12 [Compound 1]	half-life	3.1

====

# test: Human PK, single ascending dose Study M13-401
# Type: in vivo
# measurementParameters: human, in vivo; single oral 1 mg, mean ± SD

structureSmilesString	AUC(0-t)
CC[C@@H]1CN(C(=O)NCC(F)(F)F)C[C@@H]1c1cnc2cnc3[nH]ccc3n12	29.8 ng·h/mL

====

# test: Human PK in healthy Japanese and Chinese subjects, Study M13-543
# Format: in vivo
# measurementParameters: human, plasma, oral, 18 mg, Chinese, 18 mg BID, Day 1, mean (% CV); read-out: AUC12

compound	unit	AUC
CC[C@@H]1CN(C(=O)NCC(F)(F)F)C[C@@H]1c1cnc2cnc3[nH]ccc3n12 [Compound 1]	ng·h/mL	410

====

# test: Pharmacokinetics in rat
# Format: in vivo
# measurementParameters: female, Sprague-Dawley, rat, plasma, po, 10 mg/kg/day, rat F, oral 10 mg/kg/day, Day 29, mean (SD)

structureSmilesString	Cmax at 29 days
CC[C@@H]1CN(C(=O)NCC(F)(F)F)C[C@@H]1c1cnc2cnc3[nH]ccc3n12	650 ng/mL

====

# studyTarget: OATP1B1 (Homo sapiens, UniProt Q9Y6L6)
# Sequence (Q9Y6L6 1-691): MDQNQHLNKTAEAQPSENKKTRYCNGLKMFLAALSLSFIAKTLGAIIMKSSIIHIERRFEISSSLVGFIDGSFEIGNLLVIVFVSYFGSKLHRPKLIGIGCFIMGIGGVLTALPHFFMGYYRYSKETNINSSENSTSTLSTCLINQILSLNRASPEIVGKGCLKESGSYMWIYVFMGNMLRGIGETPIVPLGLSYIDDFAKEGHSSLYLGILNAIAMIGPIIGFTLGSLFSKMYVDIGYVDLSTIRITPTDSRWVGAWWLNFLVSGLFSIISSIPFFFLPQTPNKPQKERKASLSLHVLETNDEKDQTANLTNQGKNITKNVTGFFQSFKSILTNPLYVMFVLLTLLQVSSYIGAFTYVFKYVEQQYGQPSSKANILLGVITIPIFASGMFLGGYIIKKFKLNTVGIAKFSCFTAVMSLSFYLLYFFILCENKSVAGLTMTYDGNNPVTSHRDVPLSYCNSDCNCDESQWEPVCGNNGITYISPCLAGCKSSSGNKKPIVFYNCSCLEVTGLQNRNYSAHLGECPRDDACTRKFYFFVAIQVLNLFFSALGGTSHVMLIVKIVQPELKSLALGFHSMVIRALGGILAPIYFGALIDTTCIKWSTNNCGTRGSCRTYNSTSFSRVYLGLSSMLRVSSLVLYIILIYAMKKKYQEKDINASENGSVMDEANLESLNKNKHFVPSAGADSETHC
measuredMetric: IC50 (µM)

structureSmilesString	studyTarget	unit	resultValue
CC[C@@H]1CN(C(=O)NCC(F)(F)F)C[C@@H]1c1cnc2cnc3[nH]ccc3n12	OATP1B1 (Homo sapiens, UniProt Q9Y6L6)	µM	48

====

# test: Pharmacokinetics in rat
# Assay type: in vivo
# measurementParameters: female, Sprague-Dawley, plasma; rat F, oral 10 mg/kg/day, Day 29, mean (SD)
measuredMetric: AUC at 29 days

structureSmilesString	resultValue
CC[C@@H]1CN(C(=O)NCC(F)(F)F)C[C@@H]1c1cnc2cnc3[nH]ccc3n12	2280 ng·h/mL

====

# test: 6-month (26 weeks) GLP chronic oral toxicity study in rats
# Assay type: in vivo, rat
# measurementParameters: in vivo; rat, 6 months (26 weeks) oral gavage
# Protocol: The GLP-compliant studies each included 4 weeks of oral dosing followed by a 4-week recovery period in both rats and dogs followed by GLP-compliant chronic toxicity studies in rats (6 months of oral dosing) and dogs (9 months of oral dosing). The 6-month chronic rat study was conducted at dose levels of 0, 5, 20, and 50 mg/kg/day by daily oral administration (gavage).
measuredMetric: NOAEL at 6 months

compound	resultValue
CC[C@@H]1CN(C(=O)NCC(F)(F)F)C[C@@H]1c1cnc2cnc3[nH]ccc3n12 [Compound 1]	20 mg/kg/day

====

# test: Human PK in healthy Japanese and Chinese subjects, Study M13-543
# Format: in vivo
# measurementParameters: human, plasma, oral; Japanese, single dose 3 mg, mean (% CV)

compound	AUC(0-t) / ng·h/mL
CC[C@@H]1CN(C(=O)NCC(F)(F)F)C[C@@H]1c1cnc2cnc3[nH]ccc3n12 [Compound 1]	87.9

====

# test: Metabolic stability in hepatocytes, monkey
# Type: in vitro ADME
# measurementParameters: read-out: intrinsic clearance in hepatocytes (converted)
measuredMetric: CLint scaled at 1 μM (mL/min/kg)

molecule	resultValue
CC[C@@H]1CN(C(=O)NCC(F)(F)F)C[C@@H]1c1cnc2cnc3[nH]ccc3n12 [Compound 1]	6.88

====

# test: Human PK, single ascending dose Study M13-401
# Assay type: in vivo
# measurementParameters: human, in vivo; single oral 6 mg, mean ± SD

structureSmilesString	AUC(0-t) / ng·h/mL
CC[C@@H]1CN(C(=O)NCC(F)(F)F)C[C@@H]1c1cnc2cnc3[nH]ccc3n12	159

====

# test: Pharmacokinetics in rat
# Format: in vivo
# measurementParameters: plasma; rat, IV 3 mg/kg single dose, mean (SD)

structureSmilesString	AUC(0-inf) [ng·h/mL]
CC[C@@H]1CN(C(=O)NCC(F)(F)F)C[C@@H]1c1cnc2cnc3[nH]ccc3n12	1550

Reference for the values: patent US20150118229A1
